Molecular target: human CXCR3 (N-delta 4) (Homo sapiens, UniProt P49682)
Construct: CD8 leader; Flag tag; expressed in transfected cells; membranes used
Sequence (P49682 5-368 limits assumed): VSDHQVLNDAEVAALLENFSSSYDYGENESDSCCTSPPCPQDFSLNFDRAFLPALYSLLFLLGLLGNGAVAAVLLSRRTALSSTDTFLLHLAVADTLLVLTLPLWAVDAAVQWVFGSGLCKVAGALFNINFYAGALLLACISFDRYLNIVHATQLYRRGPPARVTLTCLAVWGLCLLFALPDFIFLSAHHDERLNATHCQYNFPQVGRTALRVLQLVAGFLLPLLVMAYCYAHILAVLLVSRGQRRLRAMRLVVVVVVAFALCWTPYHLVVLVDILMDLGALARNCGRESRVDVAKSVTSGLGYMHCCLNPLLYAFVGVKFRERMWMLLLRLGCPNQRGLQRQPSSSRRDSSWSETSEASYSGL
Test: Human CXCR3 (N-delta 4) scintillation proximity assay (SPA), [125I] IP-10 binding
Details: value given in text as example
assay-metric: IC50 (nM)
Answer with a number only, understood to be in nM.

Q: Name the recorded IC50 of the compound listed here: CCNC(=O)c1cnc(N2CCN(C3CCN(Cc4ccc(Cl)cc4F)CC3)[C@@H](CC)C2)c(Cl)c1 [compound 212]
A: 0.2

* * *

Target: human CXCR3 (N-delta 4) (Homo sapiens)
Construct: CD8 leader; Flag tag; expressed in transfected cells; membranes used
Assay: Human CXCR3 (N-delta 4) scintillation proximity assay (SPA), [125I] IP-10 binding
Conditions: IC50 rating; Ba/F3-hCXCR3 (N-delta 4) membranes, 25 pM [125I] IP-10
Source text: The inventive compounds can readily be evaluated to determine activity at the CXCR3 receptors by known methods, such as, for example, development of a human CXCR3 (N-delta 4) Binding Assay. Cloning and expression of human CXCR3 (N-delta 4): The DNA encoding human CXCR3 was cloned by PCR using human genomic DNA (Promega, Madison, Wis.) as a template. […]
pIC50: −log10 of the molar value.
assay-metric: pIC50

Some solved entries appear below for comparison.
{"smiles-structure": "C[C@H]1CN(c2ncc(C(N)=O)cc2Cl)CCN1C1CCN(Cc2ccc(Cl)cc2)CC1", "assay-metric": "pIC50", "result": "7.00 to 7.60"}
{"smiles-structure": "CCNC(=N)c1cnc(N2CCN(C3CCN(Cc4ccc(Cl)cc4)CC3)[C@@H](C)C2)c(Cl)c1", "assay-metric": "pIC50", "result": "7.00 to 7.60"}
{"smiles-structure": "O=C(NCc1ccc(F)cc1F)c1cnc(N2CCN(C3CCN(Cc4ccc([N+](=O)[O-])cc4)CC3)CC2)c(Cl)c1", "assay-metric": "pIC50", "result": "7.00 to 7.60"}

Next:
Q: Name the recorded pIC50 of the compound listed here: `CNC(=O)c1cnc(N2CCN(C3CCN(Cc4c(F)cc(F)cc4F)CC3)[C@@H](C)C2)c(Cl)c1`
A: < 7.00

* * *

Biological target: human CXCR3 (N-delta 4) (Homo sapiens)
Construct: CD8 leader; Flag tag; expressed in transfected cells; membranes used
Assay: Human CXCR3 (N-delta 4) scintillation proximity assay (SPA), [125I] IP-10 binding
Conditions: IC50 rating; Ba/F3-hCXCR3 (N-delta 4) membranes, 25 pM [125I] IP-10
The following molecules are shown together with reported IC50 values.

{"molecule": "CCNC(=O)c1cnc(N2CCN(C3CCN(Cc4ccc(Cl)cc4)CC3(C)C)CC2)c(Cl)c1 (stereo not shown)", "tested-system": "human CXCR3 (N-delta 4) (Homo sapiens)", "result": "< 25 nM"}
{"molecule": "CC(C)C[C@H]1CN(c2ncc(C(=O)NCc3ccc(F)c(F)c3)cc2Cl)CCN1C1CCN(Cc2ccc(Cl)cc2)CC1", "tested-system": "human CXCR3 (N-delta 4) (Homo sapiens)", "result": "> 100 nM"}
{"molecule": "C[C@H]1CN(c2ncc(C(=O)NCC3CCCCC3)cc2Cl)CCN1C1CCN(C(=O)c2ccc(C#N)cc2)CC1", "tested-system": "human CXCR3 (N-delta 4) (Homo sapiens)", "result": "> 100 nM"}
{"molecule": "CNC(=O)c1cnc(N2CCN(C3CCN(C(=N)c4ccc(Cl)cc4)CC3)[C@@H](C)C2)c(Cl)c1", "tested-system": "human CXCR3 (N-delta 4) (Homo sapiens)", "result": "25 to 100 nM"}
{"molecule": "CCNC(=O)c1cnc(N2CCN(C3CCN(Cc4ccc(Cl)cc4F)CC3)[C@@H](CC)C2)c(Cl)c1", "tested-system": "human CXCR3 (N-delta 4) (Homo sapiens)", "result": "< 25 nM"}

Q: Name the recorded IC50 of the molecule listed here: `C[C@H]1CN(c2ncc(C(=O)NCC3CCCCC3)cc2Br)CCN1C1CCN(Cc2ccc(Cl)cc2)CC1`
A: < 25 nM

Q: Name the recorded IC50 of the molecule listed here: `CNC(=O)c1cnc(N2CCN(C3CCN(C(=O)c4cc5cc(Cl)ccc5[nH]4)CC3)[C@@H](C)C2)c(Cl)c1`
A: > 100 nM
